Target System: T1, human soluble urokinase plasminogen activator receptor (suPAR) (human, UniProt Q03405 23-303, limits assumed)
T1 construct: Target antigen of the scFv off-rate screen; also called hsuPAR; human suPAR
T1 sequence (Q03405 23-303 limits assumed): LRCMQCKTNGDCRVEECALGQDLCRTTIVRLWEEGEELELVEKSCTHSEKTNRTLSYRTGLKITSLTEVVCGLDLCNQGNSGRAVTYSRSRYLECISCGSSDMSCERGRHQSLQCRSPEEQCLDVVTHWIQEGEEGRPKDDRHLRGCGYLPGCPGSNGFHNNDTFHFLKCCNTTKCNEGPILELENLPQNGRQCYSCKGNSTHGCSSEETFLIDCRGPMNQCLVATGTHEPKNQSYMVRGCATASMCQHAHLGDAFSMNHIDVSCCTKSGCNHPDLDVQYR
Measurement Protocol: BLI (Octet) off-rate screen of scFv clones
Reported koff values follow for various binders

Binder	koff [s⁻¹]
suPAR_DB06_F12 (scFv, V domains shown) VH: QVQLVQSGAEVKKPGASVKVSCKASGYTFSSYYMHWVRQAPGQGLEWMGWIDPENGNTIYAQKFQGRVTMTRDTSTSTVYMELSSLRSEDTAVYYCARGYDVDWFVYWGQGTLVTVSS VL: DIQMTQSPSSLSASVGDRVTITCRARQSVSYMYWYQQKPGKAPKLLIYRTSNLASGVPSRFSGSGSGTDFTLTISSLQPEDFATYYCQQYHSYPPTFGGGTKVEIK	0.00426
suPAR_DB06_B11 (scFv, V domains shown) VH: QVQLVQSGAEVKKPGASVKVSCKASGYTFTSNYIHWVRQAPGQGLEWMGWIDHENGNTIYDQKFQGRVTMTRDTSTSTVYMELSSLRSEDTAVYYCAEGYDVDWFVYWGQGTLVTVSS VL: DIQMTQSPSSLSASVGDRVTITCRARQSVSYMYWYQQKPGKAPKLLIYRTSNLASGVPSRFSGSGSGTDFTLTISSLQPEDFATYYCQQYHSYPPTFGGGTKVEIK	0.00489
suPAR_DB06_D09 (scFv, V domains shown) VH: QVQLVQSGAEVKKPGASVKVSCKASGGTFTSYYMHWVRQAPGQGLEWMGWIDHENGSTIYAQKFQGRVTMTRDTSTSTVYMELSSLRSEDTAVYYCARGYDVDWFVYWGQGTLVTVSS VL: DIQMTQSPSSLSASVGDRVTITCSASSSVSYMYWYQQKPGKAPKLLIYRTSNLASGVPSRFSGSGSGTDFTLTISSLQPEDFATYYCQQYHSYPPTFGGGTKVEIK	0.00149
suPAR_DB06_F02 (scFv, V domains shown) VH: QVQLVQSGAEVKKPGASVKVSCKASGYTFTNYYMHWVRQAPGQGLEWMGWIDHENGSTSYDQKFQGRVTMTRDTSTSTVYMELSSLRSEDTAVYYCARGYDVDWFVYWGQGTLVTVSS VL: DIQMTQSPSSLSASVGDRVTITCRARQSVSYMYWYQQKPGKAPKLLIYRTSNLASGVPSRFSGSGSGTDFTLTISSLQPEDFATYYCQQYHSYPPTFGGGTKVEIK	0.00157
suPAR_DB06_C01 (scFv, V domains shown) VH: QVQLVQSGAEVKKPGASVKVSCKASGYTFTGYYMHWVRQAPGQGLEWMGWIDPSNGNTIYDQKFQGRVTMTRDTSTSTVYMELSSLRSEDTAVYYCARGYDVDWFVYWGQGTLVTVSS VL: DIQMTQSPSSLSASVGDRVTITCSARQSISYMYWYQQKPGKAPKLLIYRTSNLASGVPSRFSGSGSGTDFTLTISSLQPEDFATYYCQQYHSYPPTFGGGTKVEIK	0.00233
suPAR_DB06_B12 (scFv, V domains shown) VH: QVQLVQSGAEVKKPGASVKVSCKASGYTFTNYYMHWVRQAPGQGLEWMGWIDPEGGNTIYDQKFQGRVTMTRDTSTSTVYMELSSLRSEDTAVYYCARGYDVDWFVYWGQGTLVTVSS VL: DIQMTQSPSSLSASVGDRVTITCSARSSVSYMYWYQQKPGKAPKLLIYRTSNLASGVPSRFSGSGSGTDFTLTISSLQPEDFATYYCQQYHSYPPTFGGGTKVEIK	0.00203
suPAR_DB06_E01 (scFv, V domains shown) VH: QVQLVQSGAEVKKPGASVKVSCKASGFNFKDYYIHWVRQAPGQGLEWMGWMDPSSGNTAYAQKFQGRVTMTRDTSTSTVYMELSSLRSEDTAVYYCARGYDVDWFVYWGQGTLVTVSS VL: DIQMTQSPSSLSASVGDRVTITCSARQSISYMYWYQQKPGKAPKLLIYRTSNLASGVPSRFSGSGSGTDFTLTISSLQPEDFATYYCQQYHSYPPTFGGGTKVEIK	0.00483
suPAR_DB06_E11 (scFv, V domains shown) VH: QVQLVQSGAEVKKPGASVKVSCKASGYTFTGYYMHWVRQAPGQGLEWMGWIDHENGNTIYAQKFQGRVTMTRDTSTSTVYMELSSLRSEDTAVYYCARGYDVDWFVYWGQGTLVTVSS VL: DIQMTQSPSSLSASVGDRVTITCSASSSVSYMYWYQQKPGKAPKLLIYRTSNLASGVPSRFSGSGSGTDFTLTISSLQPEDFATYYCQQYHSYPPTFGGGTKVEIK	0.00118
suPAR_DB06_F04 (scFv, V domains shown) VH: QVQLVQSGAEVKKPGASVKVSCKASGYRFTSYYMHWVRQAPGQGLEWMGWIDPENGNTIYAQKFQGRVTMTRDTSTSTVYMELSSLRSEDTAVYYCARGYDVDWFVYWGQGTLVTVSS VL: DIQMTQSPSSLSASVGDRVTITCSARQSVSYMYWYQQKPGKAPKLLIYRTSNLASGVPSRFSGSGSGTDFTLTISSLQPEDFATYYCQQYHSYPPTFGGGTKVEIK	0.00574
suPAR_DB06_F03 (scFv, V domains shown) VH: QVQLVQSGAEVKKPGASVKVSCKASGYSFTNYYMHWVRQAPGQGLEWMGWIDHENGNTIYDQKFQGRVTMTRDTSTSTVYMELSSLRSEDTAVYYCARGNDVDWFVYWGQGTLVTVSS VL: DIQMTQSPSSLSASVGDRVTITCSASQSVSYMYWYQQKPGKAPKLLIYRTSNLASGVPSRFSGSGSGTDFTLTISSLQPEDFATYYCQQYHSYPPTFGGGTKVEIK	0.004
